- Target or system: OsWOX13 (Oryza sativa, UniProt Q5QMM3 1-267)
- Sequence: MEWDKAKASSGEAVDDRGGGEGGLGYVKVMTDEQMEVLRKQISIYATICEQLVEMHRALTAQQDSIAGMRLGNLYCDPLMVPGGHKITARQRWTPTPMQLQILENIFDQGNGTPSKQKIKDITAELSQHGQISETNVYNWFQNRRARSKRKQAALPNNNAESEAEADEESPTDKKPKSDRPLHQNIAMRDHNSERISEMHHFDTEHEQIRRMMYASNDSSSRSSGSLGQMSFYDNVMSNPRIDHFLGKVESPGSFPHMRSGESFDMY
- Assay overview: protein-binding microarray (RPBM); PBS, 2% BSA, 51.3 ng/ul salmon testes DNA, 50 uM zinc acetate, 200 nM TF, 25 C, 1 h; high values mean tight binding
- Test parameters: protein: recombinant; tags: N-terminal polyhistidine and DsRed monomer fusion (pET32a); label: CyDye5-dUTP incorporated in the synthesized complementary strand; 3' TTTTT single-stranded linker to array surface; dsDNA, one strand shown
Over roughly 35,000 sequences, “fluorescence intensity (a.u.)” has its median near 10,000; the highest 2% begin near 52,000. Many of the other results were omitted from the sample, so the highest values are more common in it than they were.
Please respond with reported binding signal for every item in the list.

Request: Consider the sequence "TCTGACCATTATTAATTTCTAGCAACTAGCAATTTTGTGCCGGAGTCACCTAGTGCAG" and give its recorded binding signal.
Result: 6120 fluorescence intensity (a.u.)

Request: Consider the sequence "GATATGATGGGTACAAACTGTTATAAACTAACATGTCTATCGGAGTCACCTAGTGCAG" and give its recorded binding signal.
Result: 5970 fluorescence intensity (a.u.)

Request: Consider the sequence "ATATTTTGATTGAATATGACGTATCCTAGTAATTTGGACCCGGAGTCACCTAGTGCAG" and give its recorded binding signal.
Result: 59700 fluorescence intensity (a.u.)

Request: Consider the sequence "CTATTGATTGTTGGCGAGCATGTTCTTATCCAGTTGACTTCGGAGTCACCTAGTGCAG" and give its recorded binding signal.
Result: 33100 fluorescence intensity (a.u.)

Request: Consider the sequence "ATAATAAGTTAAAACCTAATCAATCATACGCTAATGACTTCGGAGTCACCTAGTGCAG" and give its recorded binding signal.
Result: 6780 fluorescence intensity (a.u.)

Request: Consider the sequence "AATTAATTAATTAGTCTGTTCTTATTGCTTAGTGTACTACCGGAGTCACCTAGTGCAG" and give its recorded binding signal.
Result: 53600 fluorescence intensity (a.u.)

Request: Consider the sequence "TCATTAATTAATTAATTACAGTGGTAGATGATGATGTAGTCGGAGTCACCTAGTGCAG" and give its recorded binding signal.
Result: 64000 fluorescence intensity (a.u.)

Request: Consider the sequence "TGAATGATTGCTCTTGTGCTAAGAGAATAGACTTTATCCCCGGAGTCACCTAGTGCAG" and give its recorded binding signal.
Result: 32000 fluorescence intensity (a.u.)

Request: Consider the sequence "CGTAAACAAATAGGTCCAACATAATTTAACCTTCATAGAGCGGAGTCACCTAGTGCAG" and give its recorded binding signal.
Result: 5570 fluorescence intensity (a.u.)

Request: Consider the sequence "AGTAGATTTTGACATGCTGTGTGTTAACAATGGGAGTAGACGGAGTCACCTAGTGCAG" and give its recorded binding signal.
Result: 3550 fluorescence intensity (a.u.)

Request: Consider the sequence "ATACACCAGTTGATTATAATGACAGTGATATTATGGTGGACGGAGTCACCTAGTGCAG" and give its recorded binding signal.
Result: 17800 fluorescence intensity (a.u.)

Request: Consider the sequence "TGTGGCTAAATTTATCAATTGAATGGGCTAGAGGCACGCTCGGAGTCACCTAGTGCAG" and give its recorded binding signal.
Result: 17400 fluorescence intensity (a.u.)

Request: Consider the sequence "TTTGATGGGAATTTGTTTCAGATATGCTTACGTGCACATACGGAGTCACCTAGTGCAG" and give its recorded binding signal.
Result: 13800 fluorescence intensity (a.u.)

Request: Consider the sequence "ACCCTTTCAATCATCCTCCTCCAGCAGAGCAAGCAGCCAACGGAGTCACCTAGTGCAG" and give its recorded binding signal.
Result: 11000 fluorescence intensity (a.u.)

Request: Consider the sequence "TTTCAAATCAAATCCAATCCTCCTCCTCCAGATCTCTCCACGGAGTCACCTAGTGCAG" and give its recorded binding signal.
Result: 3410 fluorescence intensity (a.u.)

Request: Consider the sequence "ATTTGTCTAGTACTCCTAATTGGTACATCGACGATCTGCGCGGAGTCACCTAGTGCAG" and give its recorded binding signal.
Result: 6670 fluorescence intensity (a.u.)

Request: Consider the sequence "GAAATTATTTGAAATTTTGACTGATTTTGAATGAATTTGACGGAGTCACCTAGTGCAG" and give its recorded binding signal.
Result: 15200 fluorescence intensity (a.u.)

Request: Consider the sequence "ATATTGAATTATTGATTTGATGAAAATAATTTAGTATTATCGGAGTCACCTAGTGCAG" and give its recorded binding signal.
Result: 20500 fluorescence intensity (a.u.)

Request: Consider the sequence "TAAATTGCGCAAAATTTATTCACGTAGATTAAGAGTCCATCGGAGTCACCTAGTGCAG" and give its recorded binding signal.
Result: 10700 fluorescence intensity (a.u.)

Request: Consider the sequence "GTTTATTTGGGCCTGATTGGCACAGATGGTAGTGCCATGTCGGAGTCACCTAGTGCAG" and give its recorded binding signal.
Result: 31700 fluorescence intensity (a.u.)

Request: Consider the sequence "ACATTAATGTGATTTCCCATTTCTACCCTATAGTTCAACACGGAGTCACCTAGTGCAG" and give its recorded binding signal.
Result: 12800 fluorescence intensity (a.u.)

Request: Consider the sequence "ATGATTGTGATTTATATTTTGAAATAAAGAGAGTAGTAATCGGAGTCACCTAGTGCAG" and give its recorded binding signal.
Result: 50500 fluorescence intensity (a.u.)

Request: Consider the sequence "ATAATTGATTGCTTTTGATGATTTCACCCTTATTTTGCTGCGGAGTCACCTAGTGCAG" and give its recorded binding signal.
Result: 65100 fluorescence intensity (a.u.)

Request: Consider the sequence "CAGCTGTTCTAATGATTTGAGATATATCAAACTTGTCAAACGGAGTCACCTAGTGCAG" and give its recorded binding signal.
Result: 3250 fluorescence intensity (a.u.)

Request: Consider the sequence "TCAAATATGACTAAATTAGTAGTTAAGTAGTATGGGAGAACGGAGTCACCTAGTGCAG" and give its recorded binding signal.
Result: 13400 fluorescence intensity (a.u.)
